Would you mind telling me the reported pIC50 of each entry?
Target: human SCD1 (Homo sapiens (Human))
Assay: Yeast growth assay, strain expressing human SCD1 as the sole desaturase (reduced growth as surrogate for SCD inhibition)
Settings: yeast with OLE1 deleted expressing human SCD1 from a plasmid; growth read as OD600 after 40 h at 30° C.; top drug concentration 33.3 μM
pIC50: −log10 of the molar value.

O=C(c1cc(N2CCOCC2)on1)N1CC(c2ccccc2)C1 [Compound 248] : 4.48
Cc1cccc(C2CCCN2C(=O)c2cc(-c3ccc4c(c3)OCO4)on2)c1 (stereo not drawn) [Compound 355] : < 4.35
Cc1nn(C)c(C)c1NC(=O)c1cc(-c2ccco2)on1 [Compound 1] : < 4.35
O=C(c1cc(-c2ccc3c(c2)OCO3)on1)N1CCCC1c1cc(Br)no1 (stereo not drawn) [Compound 412] : < 4.35
O=C(c1cc(-c2ccc3c(c2)OCO3)on1)N1C[C@H](F)C[C@H]1c1ccccc1 [Compound 420] : < 4.35

Consider the following items and state reported pIC50 for each.
1. C=C(C)c1cc(C(=O)Nc2cnn(Cc3cc(F)ccc3C(F)(F)F)c2)no1 [Compound 84]
2. O=C(c1cc(-c2ccc3c(c2)OCO3)on1)N1CCCC1c1ccccc1Br (stereo not drawn) [Compound 390]
3. COc1ccc(C2CCCN2C(=O)c2cc(-c3ccc4c(c3)OCO4)on2)cc1 (stereo not drawn) [Compound 356]
4. O=C(c1cc(-c2ccccc2)on1)N1CCC(c2cccc(F)c2)C1 (stereo not drawn) [Compound 339]
5. O=C(Nc1cnn(Cc2ccccc2)c1)c1cc(N2CC[C@@H](O)C2)on1 [Compound 186]
6. O=C(c1cc(-c2ccc3c(c2)OCO3)on1)N1CCn2ccnc2C1 [Compound 269]
7. CNC(=O)c1cccc(-c2cc(C(=O)N3CCC(c4ccccc4)CC3)no2)c1 [Compound 303]
8. O=C(c1cc(-c2ccco2)on1)N1CC2(COC2)C1 [Compound 247]

Reply:
1: < 4.35; 2: < 4.35; 3: < 4.35; 4: < 4.35; 5: 5.70; 6: < 4.35; 7: < 4.35; 8: < 4.35

Consider the following items and state reported pIC50 for each.
1. COc1ccc(-c2cc(C(=O)N3CCCC3c3ccc(OC)cc3)no2)cc1 (stereo not drawn) [Compound 376]
2. O=C(Nc1cnn(Cc2ccccc2)c1)c1cc(-c2ccccc2)no1 [Compound 123]
3. O=C(Nc1cnn(Cc2cccc(F)c2)c1)c1cc(-c2ccns2)on1 [Compound 81]
4. Cc1nnc(-c2cc(C(=O)Nc3cnn(Cc4ccccc4)c3)no2)s1 [Compound 163]
5. O=C(c1cc(-c2ccco2)on1)N1CC(F)C1 [Compound 244]

Reply:
1. < 4.35
2. < 4.35
3. 6.63
4. < 4.35
5. < 4.35

----------
Molecular target: human SCD1 (Homo sapiens (Human), UniProt O00767)
Sequence (O00767 whole entry): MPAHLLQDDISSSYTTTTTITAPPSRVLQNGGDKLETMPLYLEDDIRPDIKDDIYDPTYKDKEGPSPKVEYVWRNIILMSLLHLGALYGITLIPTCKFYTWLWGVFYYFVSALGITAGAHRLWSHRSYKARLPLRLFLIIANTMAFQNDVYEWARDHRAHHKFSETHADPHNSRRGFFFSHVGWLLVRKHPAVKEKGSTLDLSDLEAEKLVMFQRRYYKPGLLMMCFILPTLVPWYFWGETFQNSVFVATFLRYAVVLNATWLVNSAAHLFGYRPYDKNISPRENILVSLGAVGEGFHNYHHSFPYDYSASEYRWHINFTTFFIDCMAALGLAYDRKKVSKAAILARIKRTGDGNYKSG
Assay: Yeast growth assay, strain expressing human SCD1 as the sole desaturase (reduced growth as surrogate for SCD inhibition)
Conditions: yeast with OLE1 deleted expressing human SCD1 from a plasmid; growth read as OD600 after 40 h at 30° C.; top drug concentration 33.3 μM
Would you mind telling me the reported IC50 of each entry?

As a guide, the following entries are already answered.
COc1ccc(C2CCCN2C(=O)c2cc(-c3ccc4c(c3)OCO4)on2)nc1 (stereo not drawn) : > 45 µM
O=C(c1cc(-c2ccc3c(c2)OCO3)on1)N1COCC1c1ccccc1 (stereo not drawn) : > 45 µM
O=C(Nc1cnn(Cc2ccccc2)c1)c1cc(-c2nccs2)on1 : 8.9 µM
O=C(Nc1cnn(Cc2ccccc2)c1)c1cc(-c2ccncc2)on1 : 5.7 µM
O=C(c1cc(-c2ccc3c(c2)OCO3)on1)N1CCC(c2ccccc2)CC1 : > 45 µM

Consider the following items and state reported IC50 for each.
1. COc1ccc(C2CCCN2C(=O)c2cc(-c3ccc(F)c(F)c3)on2)cc1 (stereo not drawn)
2. O=C(c1cc(-c2ccc3c(c2)OCO3)on1)N1CCC(c2ccncc2)CC1
3. O=C(Nc1cnn(Cc2ccccn2)c1)c1cc(-c2ccccc2)on1
4. O=C(Nc1cnn(Cc2cccc(Cl)c2)c1)c1cc(-c2ccco2)on1
5. O=C(c1cc(-c2ccc3c(c2)OCO3)on1)N1CCCC1c1ncccc1F (stereo not drawn)
6. COc1cccc(N2CCN(C(=O)c3cc(-c4ccc5c(c4)OCO5)on3)CC2)c1
7. O=C(c1cc(-c2ccc(=O)[nH]c2)on1)N1CCC[C@H]1c1ccccc1
8. COc1ccc(-c2cc(C(=O)N3CCC[C@H]3c3ccccc3)no2)nc1

Reply:
["> 45 µM", "> 45 µM", "> 45 µM", "> 45 µM", "> 45 µM", "> 45 µM", "37.2 µM", "23.1 µM"]

Data provenance is patent US10919885B2.
